MEASUREMENT_TARGET: CFTR ΔF508 (Homo sapiens, UniProt P13569, DEL508-508)
Construct: bronchial epithelial cells isolated from CF patients homozygous for the CFTR ΔF508 mutation; McGill University; Asterand; University of North Carolina hAEC-CF; host or cells: primary human bronchial epithelial cells from CF patients homozygous for ΔF508, differentiated at air-liquid interface
Sequence (P13569 with tags, fused parts or gaps DEL508-508): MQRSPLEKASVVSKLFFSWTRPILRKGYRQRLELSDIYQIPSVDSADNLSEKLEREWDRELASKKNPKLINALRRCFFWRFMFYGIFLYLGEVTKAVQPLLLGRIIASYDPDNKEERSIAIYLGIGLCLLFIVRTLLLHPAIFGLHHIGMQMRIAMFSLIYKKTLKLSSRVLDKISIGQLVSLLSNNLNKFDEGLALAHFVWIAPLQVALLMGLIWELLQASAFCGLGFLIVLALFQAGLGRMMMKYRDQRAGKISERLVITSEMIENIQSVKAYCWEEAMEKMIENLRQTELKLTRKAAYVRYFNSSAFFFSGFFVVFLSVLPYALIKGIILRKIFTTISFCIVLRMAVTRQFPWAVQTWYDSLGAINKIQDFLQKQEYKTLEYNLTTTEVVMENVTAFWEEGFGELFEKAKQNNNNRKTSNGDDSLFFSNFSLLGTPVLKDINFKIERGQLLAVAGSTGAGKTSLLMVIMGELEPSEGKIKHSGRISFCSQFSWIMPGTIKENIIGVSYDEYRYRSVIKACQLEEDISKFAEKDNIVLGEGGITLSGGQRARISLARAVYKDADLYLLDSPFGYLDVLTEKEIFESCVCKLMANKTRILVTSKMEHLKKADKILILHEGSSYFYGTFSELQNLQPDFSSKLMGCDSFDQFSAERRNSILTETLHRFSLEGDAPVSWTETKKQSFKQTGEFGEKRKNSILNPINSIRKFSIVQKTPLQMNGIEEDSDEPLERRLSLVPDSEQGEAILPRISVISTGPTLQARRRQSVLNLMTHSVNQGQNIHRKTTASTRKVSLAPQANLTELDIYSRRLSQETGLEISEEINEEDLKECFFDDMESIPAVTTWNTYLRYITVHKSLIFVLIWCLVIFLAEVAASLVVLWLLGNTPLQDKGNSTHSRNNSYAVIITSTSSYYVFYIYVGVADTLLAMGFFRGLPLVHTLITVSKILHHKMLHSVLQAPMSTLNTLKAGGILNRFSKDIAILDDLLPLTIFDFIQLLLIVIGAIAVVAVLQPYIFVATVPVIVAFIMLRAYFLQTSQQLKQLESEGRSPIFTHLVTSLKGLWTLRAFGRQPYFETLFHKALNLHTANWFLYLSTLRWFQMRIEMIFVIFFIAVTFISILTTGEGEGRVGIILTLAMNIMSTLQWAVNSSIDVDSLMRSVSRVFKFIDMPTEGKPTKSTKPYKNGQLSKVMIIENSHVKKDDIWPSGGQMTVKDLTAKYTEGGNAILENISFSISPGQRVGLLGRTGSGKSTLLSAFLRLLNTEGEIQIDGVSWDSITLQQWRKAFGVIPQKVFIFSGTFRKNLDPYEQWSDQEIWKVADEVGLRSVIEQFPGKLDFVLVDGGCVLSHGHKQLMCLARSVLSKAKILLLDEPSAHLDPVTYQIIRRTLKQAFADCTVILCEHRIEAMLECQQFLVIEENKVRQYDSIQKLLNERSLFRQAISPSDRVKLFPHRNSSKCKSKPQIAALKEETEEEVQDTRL
ASSAY_DETAILS: Chronic TECC assay, primary bronchial epithelial cells of CF patients homozygous for CFTR ΔF508 (corrector, co-corrector and potentiator)
Assay type: cell-based
EXPERIMENTAL_CONDITIONS: chronic TECC; AUC = full area under the curve upon forskolin stimulation; read-out: EC50 (nM) (AUC**)
Protocol: Primary Bronchial Epithelial Cells Protocol The TECC (Tranepithelial Clamp Circuit, EP-design) assay measures the functionality of the cystic fibrosis Transmembrane Conductance regulator (CFTR) by measuring the short circuit current (Isc) generated over the basolateral and apical membrane of lung epithelial cells. In TECC the transepithelial potential PD and transepithelial resistance (Rt) are measured in an open circuit and transformed to Ieq using Ohm's law. […]
READOUT_NAME: EC50 (nM)
Report the figure in nM without appending any unit label.

Q: Any idea what EC50 was measured for CN(C)S(=O)(=O)NC(=O)c1cc(N2CCC(N3CCCCC3)CC2)c2c(C3CCC3)nn(-c3ccc(F)cc3)c2n1 ?
Ans: 34.2

Q: Any idea what EC50 was measured for CC(C)c1nn(-c2ccnc(N3CCOCC3)c2)c2nc(C(=O)NS(C)(=O)=O)cc(-c3ccc(N4CCOCC4)cc3)c12 ?
Ans: 23.5

Q: Any idea what EC50 was measured for CN(C)S(=O)(=O)NC(=O)c1cc(N2CCC(N3CCC(C#N)CC3)CC2)c2c(C3CCC3)nn(-c3ccc(F)cc3)c2n1 ?
Ans: 21.9

Q: Any idea what EC50 was measured for COC1CCN(C2CCN(c3cc(C(=O)NS(=O)(=O)N4CC(F)C4)nc4c3c(C3CCC3)nn4-c3ccc(F)cc3)CC2)CC1 ?
Ans: 23.5
